Just for reference, patent US20180066015A1 is where these values come from.

# System Name: T1, matriptase (Charles Craik, UCSF), recombinant (Homo sapiens (Human), UniProt Q9Y5Y6)
# T1 sequence: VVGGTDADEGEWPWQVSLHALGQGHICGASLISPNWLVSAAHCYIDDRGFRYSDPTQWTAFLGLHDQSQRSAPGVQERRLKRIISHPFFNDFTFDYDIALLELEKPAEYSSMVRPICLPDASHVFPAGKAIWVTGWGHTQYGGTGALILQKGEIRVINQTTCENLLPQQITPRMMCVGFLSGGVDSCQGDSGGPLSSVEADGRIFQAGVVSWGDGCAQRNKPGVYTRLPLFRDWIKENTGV
# Assay Procedure: fluorogenic inhibition assay
# Excerpt: […]
pKi: −log10 of the molar value. Non-standard residues stand in square brackets, D forms with d. No end group written: not given here. *: point of attachment. kbt = C-terminal ketobenzothiazole, c1ccc2sc(*)nc2c1; His(π-Bom) = N[C@@H](Cc1cncn1COCc1ccccc1)C(=O)O; Kbt = ketobenzothiazole, c1ccc2sc(*)nc2c1; Fmoc = O=C(OCC1c2ccccc2-c2ccccc21)*
Quantity Measured: pKi

1) Ac-SKLR-{kbt‑6‑CO-Val-NH2} [Ac-SKLR(SEQ ID NO: 10)-Kbt-Val-NH2]    7.99
2) Fmoc-Asp-Arg-kbt [Fmoc-DR-kbt]    6.40
3) {Cy5.5}-KRLR-kbt [Cy5.5-KRLR(SEQ ID NO: 8)-kbt]    7.06
4) H-WRLR-kbt (SMILES CC(C)C[C@H](NC(=O)[C@H](CCCNC(=N)N)NC(=O)[C@@H](N)Cc1c[nH]c2ccccc12)C(=O)N[C@@H](CCCNC(=N)N)C(=O)c1nc2ccccc2s1) [H-WRLR(SEQ ID NO: 9)-Kbt]    8.42
5) Fmoc-Ser-Arg-kbt [Fmoc-SR-kbt]    7.05
6) Fmoc-Val-Arg-kbt [Fmoc-VR-kbt]    5.83
7) Fmoc-Pro-Arg-kbt [Fmoc-PR-kbt]    7.39
8) Ac-SKLR-kbt (SMILES CC(=O)N[C@@H](CO)C(=O)N[C@@H](CCCCN)C(=O)N[C@@H](CC(C)C)C(=O)N[C@@H](CCCNC(=N)N)C(=O)c1nc2ccccc2s1) [Ac-SKLR(SEQ ID NO: 10)-Kbt]    8.52
9) Fmoc-Ile-Arg-kbt [Fmoc-IR-kbt]    6.18
10) H-[His(π-Bom)]WLR-kbt (SMILES CC(C)C[C@H](NC(=O)[C@H](Cc1c[nH]c2ccccc12)NC(=O)[C@@H](N)Cc1cncn1COCc1ccccc1)C(=O)N[C@@H](CCCNC(=N)N)C(=O)c1nc2ccccc2s1) [H-His(Bom)-WLR-kbt]    5.81
11) Fmoc-Gln-Arg-kbt [Fmoc-QR-kbt]    8.80
12) Ac-KRLR-{Kbt-Benzyl‑4‑COOMe} [Ac-KRLR(SEQ ID NO: 8)-kbt-Benzyl-4-COOMe]    9.01
13) Fmoc-Tyr-Arg-kbt [Fmoc-YR-kbt]    6.48
14) H-[dW]-Phe-Arg-{kbt-OH} [H-dWFR-kbt-COOH]    6.63
15) Ac-KRLR (not fully specified (C-terminus); also: benzyl COOH at 3 or 4 (tables differ)) [Ac-KRLR(SEQ ID NO: 8)-kbt-Benzyl-3-COOH]    8.44
16) Fmoc-Lys-Arg-kbt [Fmoc-KR-kbt]    9.70
